# Assayed system: T1, human IL-18Rβ on cells (human, UniProt O95256 20-599)
# T1 sequence: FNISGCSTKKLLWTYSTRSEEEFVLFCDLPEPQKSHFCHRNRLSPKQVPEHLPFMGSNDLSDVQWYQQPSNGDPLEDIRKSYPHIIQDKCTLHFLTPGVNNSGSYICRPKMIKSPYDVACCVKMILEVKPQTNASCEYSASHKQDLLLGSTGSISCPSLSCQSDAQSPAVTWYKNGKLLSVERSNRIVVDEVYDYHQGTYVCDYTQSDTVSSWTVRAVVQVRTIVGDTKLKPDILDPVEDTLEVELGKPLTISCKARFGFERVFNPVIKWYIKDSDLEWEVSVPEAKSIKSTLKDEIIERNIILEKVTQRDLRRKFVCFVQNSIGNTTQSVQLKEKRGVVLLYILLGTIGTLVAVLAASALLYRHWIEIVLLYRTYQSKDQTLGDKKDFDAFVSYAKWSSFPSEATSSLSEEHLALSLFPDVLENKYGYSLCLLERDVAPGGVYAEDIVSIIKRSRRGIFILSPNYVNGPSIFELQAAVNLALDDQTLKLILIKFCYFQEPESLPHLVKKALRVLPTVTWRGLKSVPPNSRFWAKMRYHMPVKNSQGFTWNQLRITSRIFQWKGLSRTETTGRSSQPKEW
# Assay notes: cell-based or functional assay
Readout label: Average IC50, LPS+IL-12 dependent IFNg production, human whole blood (nM)
Form entry: value (nM) — number only.

Quick note, Average IC50, LPS+IL-12 dependent IFNg production, human whole blood for P20-V2 (antibody, human IgG1, kappa, V domains shown, Variant of P20) VH: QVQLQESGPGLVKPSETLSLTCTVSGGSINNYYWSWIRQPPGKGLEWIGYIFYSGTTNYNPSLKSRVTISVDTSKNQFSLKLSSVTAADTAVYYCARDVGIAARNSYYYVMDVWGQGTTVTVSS VL: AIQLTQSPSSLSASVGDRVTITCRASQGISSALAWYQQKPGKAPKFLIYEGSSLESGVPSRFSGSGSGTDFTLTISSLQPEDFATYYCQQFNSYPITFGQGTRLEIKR landed at 0.37
